These entries and their values trace back to patent US20070299072A1.

# study.target: Kv1.5 (Homo sapiens)
# Construct: expressed in transfected cells; host or cells: HEK or LTK- cells
# Sequence (P22460 whole entry): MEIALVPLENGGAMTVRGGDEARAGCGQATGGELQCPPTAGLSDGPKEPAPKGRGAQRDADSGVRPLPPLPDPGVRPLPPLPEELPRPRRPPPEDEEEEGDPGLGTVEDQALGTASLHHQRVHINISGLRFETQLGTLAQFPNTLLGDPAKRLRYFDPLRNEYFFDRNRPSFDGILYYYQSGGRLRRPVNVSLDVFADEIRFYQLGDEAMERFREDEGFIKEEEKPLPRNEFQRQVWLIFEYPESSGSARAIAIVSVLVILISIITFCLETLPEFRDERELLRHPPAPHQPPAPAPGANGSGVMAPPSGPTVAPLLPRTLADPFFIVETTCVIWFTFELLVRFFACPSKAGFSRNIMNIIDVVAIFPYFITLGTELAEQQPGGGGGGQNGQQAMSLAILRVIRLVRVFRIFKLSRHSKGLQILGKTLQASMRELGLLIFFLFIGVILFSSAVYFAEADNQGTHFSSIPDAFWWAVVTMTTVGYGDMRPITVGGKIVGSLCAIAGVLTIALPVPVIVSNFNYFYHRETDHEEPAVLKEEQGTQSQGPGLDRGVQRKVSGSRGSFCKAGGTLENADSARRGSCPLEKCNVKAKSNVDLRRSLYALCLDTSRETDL
# experimental.details: Kv1.5 Patch Clamp EP (whole cell patch clamp; single point at 1 μM and IC50)
# Format: cell-based
# condition.set: single point at 1.0 μM, Kv1.5 stably over expressed in HEK or LTK- cells
property: inhibition at 1 µM (%)

molecule | study.target | val
COc1ccc(CCN2C(=O)C3(CCN(C(=O)NO)CC3)N(C)C2c2ccc(C3CC3)cc2)cc1 (stereo not shown) | Kv1.5 (Homo sapiens) | 65
CC(=O)N1CCC2(CC1)C(=O)N(CCCc1ccccc1)C(c1ccc(C3CC3)cc1)N2C (stereo not shown) | Kv1.5 (Homo sapiens) | 73
COc1ccc(CCN2C(=O)C3(CCN(C(=O)C4CC4)CC3)N(C)C2c2ccc(CC(C)C)cc2)cc1 (stereo not shown) | Kv1.5 (Homo sapiens) | 93
CCCCC(=O)N1CCC2(CC1)C(=O)N(CCc1ccc(OC)cc1)C(c1ccc(OC(F)F)cc1)N2C (stereo not shown) | Kv1.5 (Homo sapiens) | 80
COc1ccc(CCN2C(=O)C3(CCN(C(=NC#N)Oc4ccccc4)CC3)N(C)C2c2ccc(OC)cc2)cc1 (stereo not shown) | Kv1.5 (Homo sapiens) | 91

A. CCNC(=O)N1CCC2(CC1)C(=O)N(CCc1ccc(OC)cc1)C(c1ccc(C(C)(C)C)cc1)N2C (stereo not shown)
B. COc1ccc(CCN2C(=O)C3(CCN(C(=O)OC(C)(C)C)CC3)NC2c2ccc(C3CC3)cc2)cc1 (stereo not shown)
Ask | A or B : whose inhibition at 1 µM is greater? I would appreciate it if you answered with the label of your choice.
Reply | A
